Target: T1, N8 (synthetic construct, N-terminal acetylation; C-terminal amidation)
T1 chain: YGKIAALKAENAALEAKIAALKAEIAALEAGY
Assay: ITC
readout: pKd
Scale: negative log10 of molar concentration, which is what pKd denotes.

Q: Can you look up the measured pKd of Ac-GEIAALEAKNAALKAEIAALEAKIAALKAGY-NH2 [N7] for me?
A: 8.00
